Taken from paper PMC5969521.

- study-system: Sth1(365-1097) P1swap (budding yeast; Rad54 segment from S. solfataricus)
- method-notes: fluorescence anisotropy
- assay-setup: nucleotide state not visible in material; Anisotropy: 20 mM HEPES pH 7.5, 50 mM NaCl, 2.5 mM MgCl2, 5% glycerol, 1 mM DTT, 0.1 mg/mL BSA, 1 mM AMPPNP or ADP, 50 nM DNA, 20 C; EMSA: 20 mM HEPES pH 7.5 …
quantity-kind: Kd (nM)
Please reply with the bare figure in nM and do not write the unit itself.

input: Bench note: what Kd did TCCATGTCCATGGATACGTGG / TCCACGTATCCATGGACATGGA [fluorescein DNA duplex] show?
output: 520
